# Assay procedure: Drug level in cynomolgus monkey plasma at 10 mg/kg, po measured at 0.5 hr post dose by LC-MS/MS analysis
# Format: ADME, organism-based, Macaca fascicularis
Parameter measured: concentration at 0.5 h (ng/mL)
Numbers only; they are read as ng/mL.

concentration at 0.5 h reading for CC(NC(=O)c1ccc(C(F)(F)F)cc1Cl)C1(N2CCN(S(=O)(=O)c3cn(C)nn3)CC2)CCC(F)(F)CC1.Cl (single isomer, unassigned; (+)) : 67.9

====

# Assay procedure: Apparent terminal half life in cynomolgus monkey plasma at 1 mg/kg, iv or 5 mg/kg, po by LC-MS/MS analysis
# Type: ADME, organism-based, Macaca fascicularis
# Experimental setup: read-out: betat1/2(app) (converted)
Parameter measured: half-life

get_value(item= CC(NC(=O)c1ccc(C(F)(F)F)cc1Cl)C1(N2CCN(S(=O)(=O)c3cn(C)nn3)CC2)CCC(F)(F)CC1.Cl (single isomer, unassigned; (+)) , readout=half-life) returns 6.27 h

====

# Assay procedure: Metabolic stability in rat liver microsomes assessed as parent compound remaining at 3 uM incubated for 15 mins by LC-MS analysis
# Type: ADME, Microsome
# Experimental setup: liver microsomes, read-out: Stability
Parameter measured: remaining at 0.25 h, 3 µM (%)
Express the result in % but write the number alone.

Kindly note the recorded remaining at 0.25 h, 3 µM for Cn1cc(S(=O)(=O)N2CCN(C3(CNC(=O)c4c(Cl)cccc4OC(F)(F)F)CCC(F)(F)CC3)CC2)nn1 , which is 87

Record summary for Cn1cnc(S(=O)(=O)N2CCN(C3(CNC(=O)c4c(Cl)cccc4Cl)CCC(F)(F)CC3)CC2)c1 : reported remaining at 0.25 h, 3 µM = 94

Consider Cn1cnc(S(=O)(=O)N2CCN(C3(CNC(=O)c4c(Cl)cccc4OC(F)(F)F)CCC(F)(F)CC3)CC2)c1 . Its measured remaining at 0.25 h, 3 µM is 91

The recorded remaining at 0.25 h, 3 µM for entry Cl.Cn1cc(S(=O)(=O)N2CCN(C3(CNC(=O)c4ccc(C(F)(F)F)cc4Cl)CCC(F)(F)CC3)CC2)nn1 equals 85

GET /value?item= Cn1cc(S(=O)(=O)N2CCN(C3(CNC(=O)c4ccc(C(F)(F)F)cc4C(F)(F)F)CCC(F)(F)CC3)CC2)nn1 &field=remaining at 0.25 h, 3 µM returns 95

remaining at 0.25 h, 3 µM recorded for this compound, CC(NC(=O)c1ccc(C(F)(F)F)cc1Cl)C1(N2CCN(S(=O)(=O)c3cn(C)nn3)CC2)CCC(F)(F)CC1.Cl (single isomer, unassigned; (+)) , is 76

====

# Assay procedure: Drug level in Sprague-Dawley rat brain at 3 mg/kg, po measured 2 hrs post dose by LC-MS/MS analysis
# Assay type: ADME, organism-based
# Experimental setup: read-out: Drug uptake
Provide the reported concentration at 2 h of each item.
The figure you give is taken to be in nM; do not add the unit.

Reported concentration at 2 h of CC(NC(=O)c1ccc(C(F)(F)F)cc1Cl)C1(N2CCN(S(=O)(=O)c3cn(C)nn3)CC2)CCC(F)(F)CC1.Cl (single isomer, unassigned; (+)) : 12.5

Form field concentration at 2 h, entry Cl.Cn1cc(S(=O)(=O)N2CCN(C3(CNC(=O)c4ccc(C(F)(F)F)cc4Cl)CCC(F)(F)CC3)CC2)nn1 : 39.2

====

# Assay procedure: Drug level in cynomolgus monkey plasma at 10 mg/kg, po measured at 2 hrs post dose by LC-MS/MS analysis
# Format: ADME, organism-based, Macaca fascicularis
Parameter measured: concentration at 2 h (ng/mL)
Field format: number, assumed ng/mL, no unit text.

Form: molecule = CC(NC(=O)c1ccc(C(F)(F)F)cc1Cl)C1(N2CCN(S(=O)(=O)c3cn(C)nn3)CC2)CCC(F)(F)CC1.Cl (single isomer, unassigned; (+)) ; concentration at 2 h = 222

====

# Assay procedure: Drug level in cynomolgus monkey plasma at 3 mg/kg, po measured at 2 hrs post dose by LC-MS/MS analysis
# Type: ADME, organism-based, Macaca fascicularis
Parameter measured: concentration at 2 h (ng/mL)
Use ng/mL as the unit, but write only the number.

Item: CC(NC(=O)c1ccc(C(F)(F)F)cc1Cl)C1(N2CCN(S(=O)(=O)c3cn(C)nn3)CC2)CCC(F)(F)CC1.Cl (single isomer, unassigned; (+)) | concentration at 2 h: 3.6

====

# Assay procedure: Drug level in cynomolgus monkey plasma at 3 mg/kg, po measured at 8 hrs post dose by LC-MS/MS analysis
# Format: ADME, organism-based, Macaca fascicularis
Parameter measured: concentration at 8 h (ng/mL)
Field format: number, assumed ng/mL, no unit text.

Measured concentration at 8 h of CC(NC(=O)c1ccc(C(F)(F)F)cc1Cl)C1(N2CCN(S(=O)(=O)c3cn(C)nn3)CC2)CCC(F)(F)CC1.Cl (single isomer, unassigned; (+)) : 2

====

# Assay procedure: Drug level in cynomolgus monkey CSF at 10 mg/kg, po measured at 2 hrs post dose by LC-MS/MS analysis
# Format: ADME, organism-based, Macaca fascicularis, Cerebrospinal fluid
# Experimental setup: read-out: Drug uptake
Parameter measured: concentration at 2 h (ng/mL)
Record the value in ng/mL, omitting the unit from your answer.

CC(NC(=O)c1ccc(C(F)(F)F)cc1Cl)C1(N2CCN(S(=O)(=O)c3cn(C)nn3)CC2)CCC(F)(F)CC1.Cl (single isomer, unassigned; (+)) has a reported concentration at 2 h of 11.3

====

# Assay procedure: Drug level in Sprague-Dawley rat brain at 1 mg/kg, po qd for 5 days measured 2 hrs post last dose by LC-MS/MS analysis
# Assay type: ADME, organism-based
# Experimental setup: read-out: Drug uptake
Parameter measured: concentration at 2 h (nM)
Express it in nM; write the number only.

The compound identified as Cl.Cn1cc(S(=O)(=O)N2CCN(C3(CNC(=O)c4ccc(C(F)(F)F)cc4Cl)CCC(F)(F)CC3)CC2)nn1 registered its concentration at 2 h at 21

====

# Assay procedure: Drug level in cynomolgus monkey CSF at 10 mg/kg, po measured at 3 hrs post dose by LC-MS/MS analysis
# Format: ADME, organism-based, Macaca fascicularis, Cerebrospinal fluid
# Experimental setup: read-out: Drug uptake
Parameter measured: concentration at 3 h (ng/mL)
Expressed in ng/mL, but write only the number.

Record CC(NC(=O)c1ccc(C(F)(F)F)cc1Cl)C1(N2CCN(S(=O)(=O)c3cn(C)nn3)CC2)CCC(F)(F)CC1.Cl (single isomer, unassigned; (+)) , field concentration at 3 h: 11.3

====

# Assay procedure: Drug level in Sprague-Dawley rat CSF at 10 mg/kg, po qd for 5 days measured 2 hrs post last dose by LC-MS/MS analysis
# Format: ADME, organism-based, Cerebrospinal fluid
# Experimental setup: read-out: Drug uptake
Parameter measured: concentration at 2 h

Lab note: Cl.Cn1cc(S(=O)(=O)N2CCN(C3(CNC(=O)c4ccc(C(F)(F)F)cc4Cl)CCC(F)(F)CC3)CC2)nn1 gave concentration at 2 h of 1.9 nM

====

# Subject of test: Voltage-gated inwardly rectifying potassium channel KCNH2 (Homo sapiens)
# Sequence (Q12809 whole entry): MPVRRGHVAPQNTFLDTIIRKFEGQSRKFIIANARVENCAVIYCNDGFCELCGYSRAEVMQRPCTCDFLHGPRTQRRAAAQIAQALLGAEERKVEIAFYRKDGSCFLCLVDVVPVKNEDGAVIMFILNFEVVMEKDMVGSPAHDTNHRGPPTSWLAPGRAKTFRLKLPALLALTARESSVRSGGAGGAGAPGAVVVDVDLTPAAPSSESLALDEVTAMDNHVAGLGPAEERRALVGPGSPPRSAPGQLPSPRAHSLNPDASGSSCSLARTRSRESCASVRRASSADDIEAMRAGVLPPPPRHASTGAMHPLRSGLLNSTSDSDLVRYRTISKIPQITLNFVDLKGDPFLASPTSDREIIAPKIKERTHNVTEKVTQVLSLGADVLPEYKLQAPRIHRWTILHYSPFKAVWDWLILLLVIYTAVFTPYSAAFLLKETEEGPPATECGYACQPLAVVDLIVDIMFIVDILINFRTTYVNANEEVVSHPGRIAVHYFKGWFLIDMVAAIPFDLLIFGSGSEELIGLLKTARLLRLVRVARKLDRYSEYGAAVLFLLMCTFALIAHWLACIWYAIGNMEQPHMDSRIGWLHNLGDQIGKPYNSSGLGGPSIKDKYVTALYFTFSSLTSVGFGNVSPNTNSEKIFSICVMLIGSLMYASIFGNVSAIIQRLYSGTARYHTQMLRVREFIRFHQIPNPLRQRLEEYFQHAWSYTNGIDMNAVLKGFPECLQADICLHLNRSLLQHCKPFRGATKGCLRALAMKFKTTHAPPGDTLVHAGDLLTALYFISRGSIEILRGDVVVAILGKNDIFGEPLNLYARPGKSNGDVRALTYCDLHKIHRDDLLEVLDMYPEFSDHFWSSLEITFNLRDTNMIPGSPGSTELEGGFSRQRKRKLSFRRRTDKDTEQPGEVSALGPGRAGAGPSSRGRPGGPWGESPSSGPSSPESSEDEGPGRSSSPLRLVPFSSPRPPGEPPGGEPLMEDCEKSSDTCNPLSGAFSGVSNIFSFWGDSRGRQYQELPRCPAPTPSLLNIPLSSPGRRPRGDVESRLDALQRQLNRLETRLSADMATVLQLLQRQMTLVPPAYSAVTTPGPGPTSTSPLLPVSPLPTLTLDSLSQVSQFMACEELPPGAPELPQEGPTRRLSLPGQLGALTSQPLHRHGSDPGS
# Assay procedure: Inhibition of human ERG channel expressed in HEK293 cells by patch clamp assay
# Type: cell-based
Parameter measured: IC50 (µM)
Please give a number only; it is taken to be in µM.

Form: molecule = CC(NC(=O)c1ccc(C(F)(F)F)cc1Cl)C1(N2CCN(S(=O)(=O)c3cn(C)nn3)CC2)CCC(F)(F)CC1.Cl (single isomer, unassigned; (+)) ; IC50 = 20.2

====

# Assay procedure: Drug level in cynomolgus monkey plasma at 3 mg/kg, po measured at 12 hrs post dose by LC-MS/MS analysis
# Format: ADME, organism-based, Macaca fascicularis
Parameter measured: concentration at 12 h

Entry CC(NC(=O)c1ccc(C(F)(F)F)cc1Cl)C1(N2CCN(S(=O)(=O)c3cn(C)nn3)CC2)CCC(F)(F)CC1.Cl (single isomer, unassigned; (+)) ; concentration at 12 h = < 1 ng/mL

====

# Assay procedure: Drug level in Sprague-Dawley rat brain at 10 mg/kg, po qd for 5 days measured 2 hrs post last dose by LC-MS/MS analysis
# Type: ADME, organism-based
# Experimental setup: read-out: Drug uptake
Parameter measured: concentration at 2 h
The reply should read as a number followed by its unit.

The value of concentration at 2 h measured for the molecule Cl.Cn1cc(S(=O)(=O)N2CCN(C3(CNC(=O)c4ccc(C(F)(F)F)cc4Cl)CCC(F)(F)CC3)CC2)nn1 turned out to be 69.4 nM

====

# Assay procedure: Efflux ratio of apparent permeability in human Caco2 cells
# Assay type: ADME, cell-based
# Experimental setup: Caco-2
Parameter measured: efflux ratio
Output spec: single numeric token, no unit.

// sample CC(NC(=O)c1ccc(C(F)(F)F)cc1Cl)C1(N2CCN(S(=O)(=O)c3cn(C)nn3)CC2)CCC(F)(F)CC1.Cl (single isomer, unassigned; (+)) , its efflux ratio was 2
